Across several publications, the following IC50 results were reported for UniProt:P43490.
Sequence (P43490 whole entry): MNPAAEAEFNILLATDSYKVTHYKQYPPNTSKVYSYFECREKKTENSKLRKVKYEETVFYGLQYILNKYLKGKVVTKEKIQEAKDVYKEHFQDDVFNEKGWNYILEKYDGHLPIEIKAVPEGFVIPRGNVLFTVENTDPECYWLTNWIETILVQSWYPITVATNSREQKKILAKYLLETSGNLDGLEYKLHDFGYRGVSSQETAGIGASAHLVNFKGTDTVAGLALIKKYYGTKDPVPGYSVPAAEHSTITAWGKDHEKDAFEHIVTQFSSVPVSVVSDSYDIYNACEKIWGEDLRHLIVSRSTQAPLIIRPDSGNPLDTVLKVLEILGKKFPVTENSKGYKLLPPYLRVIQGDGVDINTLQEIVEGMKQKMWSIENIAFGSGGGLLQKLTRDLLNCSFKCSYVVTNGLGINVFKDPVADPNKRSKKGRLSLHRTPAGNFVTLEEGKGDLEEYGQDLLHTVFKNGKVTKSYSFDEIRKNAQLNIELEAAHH
Write the number in nM without appending the unit.

Enquiry: In one line, give reported IC50 of the entry CCC(C)(C)C(=O)N1CCC(Oc2ccc(NC(=O)C3CN(c4cccnn4)C3)cc2)CC1 .
Return: 0.817

Enquiry: Output IC50 of CC(=O)N[C@@H](CC(C)C)C(=O)N1CCC(Oc2ccc(NC(=O)C3CN(c4cccnc4)C3)cc2)CC1
Return: 1.78

Enquiry: Return reported IC50. Input compound: O=C(Nc1ccc(C2CCN(C(=O)c3ccccc3)CC2)cc1)Nc1ccc2nccn2c1
Return: 0.169

Enquiry: State its IC50 for this compound: COCCN(C(=O)Cc1ccc(Oc2ccccc2)cc1)c1ncc(C(=O)NCCCn2ccnc2)s1
Return: 1.23

Enquiry: Using the record for CC1(C(=O)N2CCC(c3ccc(NC(=O)C4CN(c5cccnc5)C4)cc3)CC2)CC1 , state its measured IC50.
Return: 0.169

Enquiry: Look up and report measured IC50 for this entry: CC(C)Cn1cc(-c2ccc(NC(=O)NCc3ccn4ccnc4c3)cc2)cn1
Return: 0.232

Enquiry: Determine its reported IC50: CC(C)CS(=O)(=O)N1CCC(c2ncc(C(=O)NCc3ccn4ccnc4c3)s2)C1 (centres unmarked)
Return: 1
